system: Hep-G2 cells (human hepatocellular carcinoma); assay: In vitro antiproliferative assay; type: cell-based; conditions: Homo sapiens, HepG2, 72 h, read-out: IC50 ± SD
Cut-off 20 µg/mL on IC50: below means Criterion met, at or above means Criterion not met.

>  <COMPOUND>
Cc1ccc([N+]2=NN(CCCl)CC2)cc1.[Cl-] [2c]

>  <CATEGORY LABEL>
Criterion not met

$$$$
>  <COMPOUND>
O=[N+]([O-])c1ccc([N+]2=NN(CCCl)CC2)cc1.[Cl-] [2g]

>  <CATEGORY LABEL>
Criterion not met

$$$$
>  <COMPOUND>
ClCCN1CC[N+](c2ccc(Cl)cc2)=N1.[Cl-] [2e]

>  <CATEGORY LABEL>
Criterion met

$$$$
>  <COMPOUND>
CCOC(=O)c1ccc([N+]2=NN(CCCl)CC2)cc1.[Cl-] [2f]

>  <CATEGORY LABEL>
Criterion not met

$$$$
>  <COMPOUND>
FC(F)(F)c1cccc([N+]2=NN(CCCl)CC2)c1.[Cl-] [2d]

>  <CATEGORY LABEL>
Criterion met

$$$$
>  <COMPOUND>
CC(=O)c1ccc([N+]2=NN(CCCl)CC2)cc1.[Cl-] [2a]

>  <CATEGORY LABEL>
Criterion not met

$$$$

QUERY: Field: below-cutoff. Rule: recorded IC50 strictly less than 20 µg/mL. Subject: Fc1ccc([N+]2=NN(CCCl)CC2)cc1.[Cl-] [2i]
RESULT: Criterion not met

QUERY: Strictly below 20 µg/mL in IC50? ClCCN1CC[N+](c2ccccc2)=N1.[Cl-] [2b]
RESULT: Criterion not met

###

test system: MV-4-11 cells (biphenotypic B myelomonocytic leukemia); test: In vitro antiproliferative assay; type: cell-based, human; conditions: Homo sapiens, MV4-11, 72 h, read-out: IC50 ± SD
# IC50 values compiled below
# output: bare number, implied unit µg/mL

>  <COMPOUND>
Cc1ccc([N+]2=NN(CCCl)CC2)cc1.[Cl-] [2c]

>  <TARGET SYSTEM>
MV-4-11 cells (biphenotypic B myelomonocytic leukemia)

>  <IC50, µg/mL>
5.42

$$$$
>  <COMPOUND>
CCOC(=O)c1ccc([N+]2=NN(CCCl)CC2)cc1.[Cl-] [2f]

>  <TARGET SYSTEM>
MV-4-11 cells (biphenotypic B myelomonocytic leukemia)

>  <IC50, µg/mL>
6.16

$$$$
>  <COMPOUND>
FC(F)(F)c1cccc([N+]2=NN(CCCl)CC2)c1.[Cl-] [2d]

>  <TARGET SYSTEM>
MV-4-11 cells (biphenotypic B myelomonocytic leukemia)

>  <IC50, µg/mL>
5.59

$$$$
>  <COMPOUND>
O=[N+]([O-])c1ccc([N+]2=NN(CCCl)CC2)cc1.[Cl-] [2g]

>  <TARGET SYSTEM>
MV-4-11 cells (biphenotypic B myelomonocytic leukemia)

>  <IC50, µg/mL>
14.1

$$$$
>  <COMPOUND>
ClCCN1CC[N+](c2ccc(Cl)cc2)=N1.[Cl-] [2e]

>  <TARGET SYSTEM>
MV-4-11 cells (biphenotypic B myelomonocytic leukemia)

>  <IC50, µg/mL>
7.69

$$$$
>  <COMPOUND>
CC(=O)c1ccc([N+]2=NN(CCCl)CC2)cc1.[Cl-] [2a]

>  <TARGET SYSTEM>
MV-4-11 cells (biphenotypic B myelomonocytic leukemia)

>  <IC50, µg/mL>
13.4

$$$$
>  <COMPOUND>
ClCCN1CC[N+](c2ccccc2)=N1.[Cl-] [2b]

>  <TARGET SYSTEM>
MV-4-11 cells (biphenotypic B myelomonocytic leukemia)

>  <IC50, µg/mL>
44.6

$$$$

Let us move to another entry and its IC50.
QUERY: IC50 lookup needed for Fc1ccc([N+]2=NN(CCCl)CC2)cc1.[Cl-] [2i] , thanks.
RESULT: 51.4

###

assay: Determination of lipophilicity by RP UPLC; type: physicochemical
As shown below, each of these compounds has a reported Φ0 lipophilicity parameter (−log kw/S) value.
Provide a numeric answer; units are not to be included.

Use these answered entries as a reference point.
>  <COMPOUND>
CCOC(=O)c1ccc([N+]2=NN(CCCl)CC2)cc1.[Cl-] [2f]

>  <VAL>
1.301

$$$$
>  <COMPOUND>
CC(=O)c1ccc([N+]2=NN(CCCl)CC2)cc1.[Cl-] [2a]

>  <VAL>
1.958

$$$$
>  <COMPOUND>
FC(F)(F)c1cccc([N+]2=NN(CCCl)CC2)c1.[Cl-] [2d]

>  <VAL>
1.204

$$$$
>  <COMPOUND>
ClCCN1CC[N+](c2ccc(Cl)cc2)=N1.[Cl-] [2e]

>  <VAL>
1.196

$$$$
>  <COMPOUND>
Fc1ccc([N+]2=NN(CCCl)CC2)cc1.[Cl-] [2i]

>  <VAL>
1.824

$$$$

QUERY: Name the recorded Φ0 lipophilicity parameter (−log kw/S) for ClCCN1CC[N+](c2ccccc2)=N1.[Cl-] [2b] .
RESULT: 1.519

QUERY: May I ask what Φ0 lipophilicity parameter (−log kw/S) has been recorded for O=[N+]([O-])c1ccc([N+]2=NN(CCCl)CC2)cc1.[Cl-] [2g] ?
RESULT: 2.532

QUERY: Please give the measured Φ0 lipophilicity parameter (−log kw/S) for this compound: Cc1ccc([N+]2=NN(CCCl)CC2)cc1.[Cl-] [2c]
RESULT: 1.338

###

Recorded measurements of IC50, one per entry
system: JURKAT cells (human leukemic T-cell lymphoblast); assay: In vitro antiproliferative assay; assay type: cell-based; conditions: Homo sapiens, Jurkat, 72 h, read-out: IC50 ± SD
Put your answer as a value accompanied by its unit after it.

Please review the entries below; each comes with its answer.
>  <MOLECULE>
O=[N+]([O-])c1ccc([N+]2=NN(CCCl)CC2)cc1.[Cl-] [2g]

>  <ENDPOINT NAME>
IC50

>  <VAL>
49.1 µg/mL

$$$$
>  <MOLECULE>
Cc1ccc([N+]2=NN(CCCl)CC2)cc1.[Cl-] [2c]

>  <ENDPOINT NAME>
IC50

>  <VAL>
13.1 µg/mL

$$$$
>  <MOLECULE>
ClCCN1CC[N+](c2ccccc2)=N1.[Cl-] [2b]

>  <ENDPOINT NAME>
IC50

>  <VAL>
68.5 µg/mL

$$$$
>  <MOLECULE>
CC(=O)c1ccc([N+]2=NN(CCCl)CC2)cc1.[Cl-] [2a]

>  <ENDPOINT NAME>
IC50

>  <VAL>
66.2 µg/mL

$$$$
>  <MOLECULE>
FC(F)(F)c1cccc([N+]2=NN(CCCl)CC2)c1.[Cl-] [2d]

>  <ENDPOINT NAME>
IC50

>  <VAL>
24.3 µg/mL

$$$$

QUERY: For the record ClCCN1CC[N+](c2ccc(Cl)cc2)=N1.[Cl-] [2e] , what value of IC50 is listed for JURKAT cells (human leukemic T-cell lymphoblast)?
RESULT: 13.6 µg/mL

QUERY: For JURKAT cells (human leukemic T-cell lymphoblast), provide IC50 of CCOC(=O)c1ccc([N+]2=NN(CCCl)CC2)cc1.[Cl-] [2f] please.
RESULT: 36 µg/mL
